Where do these numbers come from? They come from ChEMBL document CHEMBL4477274.

- SYSTEM_NAME: Histone-lysine N-methyltransferase, H3 lysine-79 specific (Homo sapiens)
- Sequence (Q8TEK3 whole entry): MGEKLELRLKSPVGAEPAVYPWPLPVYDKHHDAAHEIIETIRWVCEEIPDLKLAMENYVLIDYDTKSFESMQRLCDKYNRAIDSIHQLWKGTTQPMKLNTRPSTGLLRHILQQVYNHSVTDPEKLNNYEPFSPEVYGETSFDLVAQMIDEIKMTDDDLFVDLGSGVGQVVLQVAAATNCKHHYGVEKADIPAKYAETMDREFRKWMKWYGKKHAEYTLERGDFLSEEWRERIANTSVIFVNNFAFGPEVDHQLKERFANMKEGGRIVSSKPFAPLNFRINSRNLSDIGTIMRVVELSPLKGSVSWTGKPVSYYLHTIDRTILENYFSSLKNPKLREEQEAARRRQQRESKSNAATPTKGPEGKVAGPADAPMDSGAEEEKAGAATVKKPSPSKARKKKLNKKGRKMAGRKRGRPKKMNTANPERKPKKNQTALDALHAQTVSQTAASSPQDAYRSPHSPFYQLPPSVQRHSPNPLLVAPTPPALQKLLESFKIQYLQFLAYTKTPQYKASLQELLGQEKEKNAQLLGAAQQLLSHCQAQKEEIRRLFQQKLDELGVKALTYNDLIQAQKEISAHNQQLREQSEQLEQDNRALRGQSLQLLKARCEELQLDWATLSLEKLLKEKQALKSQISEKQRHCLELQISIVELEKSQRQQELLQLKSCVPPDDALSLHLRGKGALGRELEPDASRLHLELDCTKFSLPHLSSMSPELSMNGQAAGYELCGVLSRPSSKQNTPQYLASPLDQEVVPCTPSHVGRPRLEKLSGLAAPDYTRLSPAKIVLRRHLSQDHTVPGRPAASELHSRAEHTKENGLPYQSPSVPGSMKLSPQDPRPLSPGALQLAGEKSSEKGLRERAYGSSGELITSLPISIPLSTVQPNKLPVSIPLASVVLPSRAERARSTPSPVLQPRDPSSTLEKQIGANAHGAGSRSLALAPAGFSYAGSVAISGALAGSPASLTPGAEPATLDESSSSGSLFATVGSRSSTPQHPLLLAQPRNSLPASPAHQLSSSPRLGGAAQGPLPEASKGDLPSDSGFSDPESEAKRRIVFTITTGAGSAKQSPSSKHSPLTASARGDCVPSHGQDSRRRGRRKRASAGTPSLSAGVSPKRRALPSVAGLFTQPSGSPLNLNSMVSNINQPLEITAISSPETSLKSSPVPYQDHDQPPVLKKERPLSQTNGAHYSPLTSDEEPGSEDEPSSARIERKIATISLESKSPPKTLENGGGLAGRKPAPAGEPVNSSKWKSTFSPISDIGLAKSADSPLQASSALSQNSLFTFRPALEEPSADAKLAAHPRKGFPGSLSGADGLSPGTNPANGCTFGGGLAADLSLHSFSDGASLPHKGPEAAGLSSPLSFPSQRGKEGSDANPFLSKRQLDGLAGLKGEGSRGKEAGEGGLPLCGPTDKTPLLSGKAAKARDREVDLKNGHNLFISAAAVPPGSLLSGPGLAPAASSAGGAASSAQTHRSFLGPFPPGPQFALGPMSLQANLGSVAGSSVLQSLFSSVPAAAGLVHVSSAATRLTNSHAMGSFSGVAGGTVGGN
- MEASUREMENT_DESCRIPTION: Inhibition of DOT1L in human HeLa cells assessed as reduction in H3K79me2 level after 72 hrs by ELISA
- Type: cell-based
MEASURED_METRIC: IC50 (nM)

a = CNc1ccnc(Nc2ccc3sc(Cl)c(-c4cc(-c5c(C)ncn(C)c5=O)cnc4Cl)c3c2)n1
b = CNc1ccnc(Nc2ccc3cc(C)n(-c4ccccc4Oc4cnc5c(c4)ncn5C)c3c2)n1
Rank a against b by their IC50 values and give the higher one. Mark your answer with the label of the selected entry. a
(a: 23 nM, b: 16 nM)
